Entry source: patent US7307044B2

System: greenhouse red spider mite (Tetranychus urticae)
Test: Tetranychus test (OP-resistent/dip treatment)
Type: in vivo
Conditions: 100 ppm, bean plants dipped
Kill rate in % after 7 d for assorted compounds
Write it as a number; the unit % goes unstated.

{"COMPOUND": "COC1CCC2(CC1)NC(=O)C(Cl)(c1cc(-c3cccc(Cl)c3)ccc1Cl)C2=O (stereo not shown)", "Kill rate in % after 7 d / %": 100}
{"COMPOUND": "Cc1ccc(-c2ccc(Cl)cc2)cc1C1(Cl)C(=O)NC(C)(C)C1=O (stereo not shown)", "Kill rate in % after 7 d / %": 100}
{"COMPOUND": "Cc1cc(-c2ccc(Cl)cc2)cc(Cl)c1C1(Cl)C(=O)NC2(CCCOC2)C1=O (stereo not shown)", "Kill rate in % after 7 d / %": 98}

Kindly consider the entry below.
Input: Which Kill rate in % after 7 d value belongs to Cc1cc(C)c(C2(Cl)C(=O)NC3(CCOCC3)C2=O)cc1-c1ccc(Cl)cc1 (stereo not shown) ?
Output: 99

====

Listed compounds paired with reported Kill rate in % after 7 d
Tested on: greenhouse red spider mite (Tetranychus urticae)
Test: Tetranychus test (OP-resistent/dip treatment)
Assay type: in vivo
Details: 100 ppm, bean plants dipped
Output spec: scalar in %, unitless text.

Example entries begin here.
{"COMPOUND": "Cc1ccc(-c2ccc(Cl)cc2)cc1C1(Cl)C(=O)NC(C)(C(C)C)C1=O (stereo not shown) [Ex. I-1-11]", "UNIT LABEL": "%", "Kill rate in % after 7 d": 99}
{"COMPOUND": "COC1CCC2(CC1)NC(=O)C(Cl)(c1cc(-c3ccc(Cl)c(Cl)c3)ccc1C)C2=O (stereo not shown) [Ex. I-1-13]", "UNIT LABEL": "%", "Kill rate in % after 7 d": 95}
{"COMPOUND": "Cc1ccc(-c2ccc(Cl)c(Cl)c2)cc1C1(Cl)C(=O)NC(C)(C)C1=O (stereo not shown) [Ex. I-1-15]", "UNIT LABEL": "%", "Kill rate in % after 7 d": 99}

Turning now to a further compound:
Input: Which Kill rate in % after 7 d is reported for this compound? CC1(C)NC(=O)C(Cl)(c2cc(-c3ccc(Cl)cc3)ccc2Cl)C1=O (stereo not shown) [Ex. I-1-2]
Output: 100

====

Test system: Avena fatua
Assay: Post-emergence test (greenhouse)
Format: in vivo
Details: 250 g ai/ha, after three weeks
Procedure: Solvent: 5 parts by weight of acetone Emulsifier: 1 part by weight of alkylaryl polyglycol ether To produce a suitable preparation of active compound, 1 part by weight of active compound is mixed with the stated amount of solvent, the stated amount of emulsifier is added and the concentrate is diluted with water to the desired concentration. […]
# degree of damage to the plants in % damage listing for each entry below
Kindly format the answer as number then unit.

Illustrative cases are given below, each with its answer.
{"COMPOUND": "Cc1ccc(-c2ccc(Cl)cc2)cc1C1(Cl)C(=O)NC2(CCOCC2)C1=O (stereo not drawn) [Ex. I-1-14]", "SYSTEM": "Avena fatua", "MEASURED RESULT": "100%"}
{"COMPOUND": "Cc1cc(C)c(C2(Cl)C(=O)NC3(CCCOC3)C2=O)cc1-c1ccc(Cl)cc1 (stereo not drawn) [Ex. I-1-7]", "SYSTEM": "Avena fatua", "MEASURED RESULT": "95%"}
{"COMPOUND": "Cc1ccc(-c2ccc(Cl)cc2)cc1C1(Cl)C(=O)NC(C)(C(C)C)C1=O (stereo not drawn) [Ex. I-1-11]", "SYSTEM": "Avena fatua", "MEASURED RESULT": "90%"}
{"COMPOUND": "Cc1cc(C)c(C2(Cl)C(=O)NC3(CCOCC3)C2=O)cc1-c1ccc(Cl)cc1 (stereo not drawn) [Ex. I-1-6]", "SYSTEM": "Avena fatua", "MEASURED RESULT": "100%"}

Input: State the recorded degree of damage to the plants in % damage for this entry: COC1CCC2(CC1)NC(=O)C(Cl)(c1c(C)cc(-c3cccc(Cl)c3)cc1C)C2=O (stereo not drawn) [Ex. I-1-4]
Output: 100%
